- Tested on: MDA-MB-436
- Measurement Protocol: normalised response (% of control), CellTiter-Glo; higher = more viable cells (100 = DMSO, 0 = benzethonium chloride kill control)
- Reported Conditions: incubation time: 72 h
Observed Property: normalised response (%)
Form entry: value (%) — number only.

Consider the reported normalised response for these compounds:
* CS(=O)(=O)c1ccc(C(=O)Nc2ccc(Cl)c(-c3ccccn3)c2)c(Cl)c1 [Vismodegib] (1000 nM) | 93.3
* C[C@]1(c2nc3c(C(N)=O)cccc3[nH]2)CCCN1 [Veliparib] (1000 nM) | 95.4
* Clc1ccc(C(c2ccccc2Cl)C(Cl)Cl)cc1 (configuration not stated) [Mitotane] (1 nM) | 85.8
* OC[C@H]1O[C@@H](n2cnc3c2N=CNC[C@H]3O)C[C@@H]1O [Pentostatin] (1000 nM) | 102
* Cc1ccc(F)c(NC(=O)Nc2ccc(-c3cccc4[nH]nc(N)c34)cc2)c1 [Linifanib] (0.1 nM) | 107
* C=CC[C@@H]1/C=C(\C)C[C@H](C)C[C@H](OC)[C@H]2O[C@@](O)(C(=O)C(=O)N3CCCC[C@H]3C(=O)O[C@H](/C(C)=C/[C@@H]3CC[C@@H](O)[C@H](OC)C3)[C@H](C)[C@@H](O)CC1=O)[C@H](C)C[C@@H]2OC [Tacrolimus] (1 nM) | 103

For the next question, use this compound.
The recorded normalised response for CS(=O)(=O)c1ccc(C(=O)Nc2ccc(Cl)c(-c3ccccn3)c2)c(Cl)c1 [Vismodegib] (1 nM) is 100

###

- Tested on: MCF-10A
- Measurement Protocol: normalised response (% of control), CellTiter-Glo; higher = more viable cells (100 = DMSO, 0 = benzethonium chloride kill control)
- Reported Conditions: incubation time: 72 h
Criterion: normalised response meeting or surpassing 80%. Met: True. Not met: False.

Some entries whose results are on file:
* Cc1c2oc3c(C)ccc(C(=O)N[C@@H]4C(=O)N[C@H](C(C)C)C(=O)N5CCC[C@H]5C(=O)N(C)CC(=O)N(C)[C@@H](C(C)C)C(=O)O[C@@H]4C)c3nc-2c(C(=O)N[C@@H]2C(=O)N[C@H](C(C)C)C(=O)N3CCC[C@H]3C(=O)N(C)CC(=O)N(C)[C@@H](C(C)C)C(=O)O[C@@H]2C)c(N)c1=O [Dactinomycin] (100 nM) | False
* Clc1ccc(C(c2ccccc2Cl)C(Cl)Cl)cc1 (stereo not given) [Mitotane] (10 nM) | True
* CC[C@]1(O)C[C@@H]2CN(CCc3c([nH]c4ccccc34)[C@@](C(=O)OC)(c3cc4c(cc3OC)N(C)[C@H]3[C@@](O)(C(=O)OC)[C@H](OC(C)=O)[C@]5(CC)C=CCN6CC[C@]43[C@@H]65)C2)C1 [Vinblastine] (100 nM) | False

Please check the record CS(=O)(=O)c1ccc(C(=O)Nc2ccc(Cl)c(-c3ccccn3)c2)c(Cl)c1 [Vismodegib] (10 nM) and state if its normalised response is at or above 80%. True

###

- Tested on: MDA-MB-436
- Measurement Protocol: normalised viability (% of control), CellTiter-Blue; higher = more viable cells (about 100 = DMSO control)
- Reported Conditions: 10000 nM; incubation time: 72 h
Each item that follows carries a reported normalised viability.
Form entry: value (%) — number only.

Consider the reported normalised viability for these compounds:
* COc1cc(Nc2ncc3c(n2)-c2ccc(Cl)cc2C(c2c(F)cccc2OC)=NC3)ccc1C(=O)O | 70.8
* C=CCNC1=C2C[C@@H](C)C[C@H](OC)[C@H](O)[C@@H](C)/C=C(\C)[C@H](OC(N)=O)[C@@H](OC)/C=C\C=C(/C)C(=O)NC(=CC1=O)C2=O | 17.5

The recorded normalised viability for CN1CCC(COc2cnc(-c3cccc(Cn4nc(-c5cccc(C#N)c5)ccc4=O)c3)nc2)CC1 is 11.6
